Documented koff across a set of binders
- targetEntity: T1, HuCTLA4-HuIgG1 (fusion protein of the extracellular part of human CD152 and human Fc gamma 1, CTLA4-Ig) (human, UniProt P16410 36-161)
- T1 construct: extracellular domain; also called CTLA4-hFc; CTLA4-Fc; not shown: human Fc gamma 1
- T1 sequence (P16410 36-161 limits assumed): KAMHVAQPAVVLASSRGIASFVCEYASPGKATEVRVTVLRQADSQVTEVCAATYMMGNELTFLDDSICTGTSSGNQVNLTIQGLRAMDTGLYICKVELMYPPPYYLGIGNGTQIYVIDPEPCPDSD
- experimentSummary: SPR, Biacore T100, CTLA4-Ig amine-coupled
The reply should be a number in s⁻¹, with the unit left off.

| binder | valueType | unitDescriptor | testValue |
| --- | --- | --- | --- |
| 4CTLAPMP03A6 (VHH, short label tied to the entry by the clone code only; not shown: C-terminal c-myc tag and His6 tag) VHH: EVQLVESGGGLVQPGGSLRLSCAAPGRTFSNYAMGWFRQAPGKGREFVADIRWSDGRTYYADSVKGRFTVSRDNAKNTVYLQMNSLKPEDTAVYYCAAQGGVLSGWDYWGQGTQVTVSS | koff | s⁻¹ | 0.0018 |
| 4CTLAPMP02F2 (VHH, short label tied to the entry by the clone code only; not shown: C-terminal c-myc tag and His6 tag) VHH: EVQLMESGGGLVQTGGSLRLSCAASGRTFSNYTMGWFRQAPGKDREFVAAISRSGSLKAYADSVKGRFTPSRDNAKKMAYLQMNSLKPEDTAVYYCAAAPVPWGTRPSLFPYDSWGQGTQVTVSS | koff | s⁻¹ | 0.00391 |
| 4CTLAPMP17E3 (VHH, short label tied to the entry by the clone code only; not shown: C-terminal c-myc tag and His6 tag) VHH: EVQLMESGGGLVTAGGSLRLSCAASGGTFGHYAMAWFRRPPGNEREFVAGIGWTYTTFYADSVKGRFAISRDNAENTVYLQMNNLKPDDTAVYYCAAAELKGRNLRVPDYEHWGQGTQVTVSS | koff | s⁻¹ | 0.00489 |

--- query ---
Problem: Can you share its koff? I mean this binder: 4CTLAPMP06C10 (VHH, short label tied to the entry by the clone code only; not shown: C-terminal c-myc tag and His6 tag) VHH: EVQLVESGGGLVQAGGSLRLSCAASGRTFSNYTIAYFRQAPGREREFAAAISPHGTLRSFADSVKDRFTISRDNAKNTVWLQMNSLKLEDTAVYYCAADPSGWGLRQHSENEYPYWGLGTQVTVSS
Result: 0.00279
